Sourced from patent US10562912B2

tested.system: STAT3 (Homo sapiens, UniProt P40763)
Construct: plasmid pSTAT3-TA-luc), which contains a stably operating STAT3 promoter; endogenous in cells
Sequence (P40763 whole entry): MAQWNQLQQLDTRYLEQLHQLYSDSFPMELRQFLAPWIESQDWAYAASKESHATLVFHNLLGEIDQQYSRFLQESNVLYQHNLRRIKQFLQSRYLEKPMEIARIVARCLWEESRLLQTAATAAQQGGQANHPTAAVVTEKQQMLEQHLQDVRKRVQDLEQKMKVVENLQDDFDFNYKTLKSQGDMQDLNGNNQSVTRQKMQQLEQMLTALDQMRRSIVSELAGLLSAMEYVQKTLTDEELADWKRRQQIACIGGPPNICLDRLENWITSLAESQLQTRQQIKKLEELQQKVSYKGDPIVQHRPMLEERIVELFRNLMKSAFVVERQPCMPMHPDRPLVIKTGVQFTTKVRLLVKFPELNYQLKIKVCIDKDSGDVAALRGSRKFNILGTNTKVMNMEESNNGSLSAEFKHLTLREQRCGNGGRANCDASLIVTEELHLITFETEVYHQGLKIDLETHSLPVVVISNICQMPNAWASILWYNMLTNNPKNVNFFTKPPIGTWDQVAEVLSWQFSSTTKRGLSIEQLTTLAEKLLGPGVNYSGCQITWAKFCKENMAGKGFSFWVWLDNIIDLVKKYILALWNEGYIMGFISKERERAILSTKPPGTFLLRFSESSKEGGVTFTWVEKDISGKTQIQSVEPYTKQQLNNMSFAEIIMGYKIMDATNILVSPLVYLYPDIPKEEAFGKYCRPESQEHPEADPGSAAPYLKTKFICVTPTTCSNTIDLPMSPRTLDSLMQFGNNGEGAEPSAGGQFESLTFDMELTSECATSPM
assay.comment: STAT3 reporter gene assay (luciferase), LNCaP stable cell line (pSTAT3-TA-luc), IL-6 stimulation
Type: cell-based
quantity: log10(IC50) (log10 of the value in µM)
Hello, just confirming the data are log10 of IC50 with units of µM.

[[record]]
molecule_smiles = "CNS(=O)(=O)Nc1ccc2cc(C(=O)Nc3cccc(-c4ccc(F)cc4F)c3)[nH]c2c1"
tested_system = "STAT3 (Homo sapiens, UniProt P40763)"
quantitative_readout = 0.54


[ask] Identify the measured log10(IC50) of `COc1cc(Cl)cc(Oc2cc(Cl)cc(NC(=O)c3cc4cc(NS(C)(=O)=O)c(Cl)cc4s3)c2)c1` for STAT3 (Homo sapiens, UniProt P40763).
[reply] -1.32

----------
Test system: LNCaP
assay.comment: Cell growth inhibition assay, prostate cancer cell line LNCaP (medium with 10 ng/mL IL-6)
Type: cell-based
run.parameters: Homo sapiens, medium supplemented with 10 ng/mL of IL-6, 10,000 cells/well
Catalogue of molecules with associated IC50

[[record]]
molecule_smiles = "CS(=O)(=O)Nc1ccc2[nH]c(C(=O)Nc3cccc(-c4ccccc4C(F)(F)F)c3)cc2c1"
quantity = "IC50"
result = "2 µM"


[ask] Can you share its IC50? I mean this molecule: `CS(=O)(=O)Nc1ccc2cc(C(=O)Nc3cccc(C(=O)c4ccccc4)c3)[nH]c2c1`
[reply] > 10 µM

[ask] Can you share its IC50? I mean this molecule: `NS(=O)(=O)Nc1ccc2cc(C(=O)Nc3cccc(-c4ccccc4C(F)(F)F)c3)[nH]c2c1`
[reply] > 10 µM

[ask] Can you share its IC50? I mean this molecule: `O=C(Nc1cccc(-c2ccc(F)cc2C(F)(F)F)c1)c1nc2cc([N+](=O)[O-])ccc2[nH]1`
[reply] > 10 µM

----------
tested.system: STAT3 (Homo sapiens)
Construct: plasmid pSTAT3-TA-luc), which contains a stably operating STAT3 promoter; endogenous in cells
assay.comment: STAT3 reporter gene assay (luciferase), LNCaP stable cell line (pSTAT3-TA-luc), IL-6 stimulation
Type: cell-based
quantity: IC50 (µM)
Field format: number, assumed µM, no unit text.

Sample records with IC50:
[[record]]
molecule = "COc1cncc(S(=O)(=O)c2cccc(NC(=O)c3cc4ccc(NS(C)(=O)=O)cc4[nH]3)c2)c1 [Example 407]"
quantity = "IC50"
measurement_units = "µM"
quantitative_readout = 5.7

[[record]]
molecule = "Cc1csc(C(C)(C)c2cc(Cl)cc(NC(=O)c3cc4cc(NS(C)(=O)=O)c(Cl)cc4s3)c2)c1 [Example 181]"
quantity = "IC50"
measurement_units = "µM"
quantitative_readout = 0.005

[[record]]
molecule = "CS(=O)(=O)Nc1ccc2sc(C(=O)Nc3cc(Cl)cc(Oc4ccc(F)c(F)c4)c3)cc2c1 [Example 460]"
quantity = "IC50"
measurement_units = "µM"
quantitative_readout = 0.15


Now for a further molecule.
[ask] Can you share its IC50? I mean this molecule: CS(=O)(=O)Nc1cc2cc(C(=O)Nc3cc(Cl)nc(Oc4ccc(Cl)cc4)c3)sc2cc1Cl [Example 490]
[reply] 0.016

----------
Catalogue of compounds with associated IC50
System: LNCaP
assay.comment: Cell growth inhibition assay, prostate cancer cell line LNCaP (medium with 10 ng/mL IL-6)
Type: cell-based
run.parameters: Homo sapiens, medium supplemented with 10 ng/mL of IL-6, 10,000 cells/well

[[record]]
molecule_smiles = "CS(=O)(=O)Nc1cc2cc(C(=O)Nc3cc(Cl)cc(Oc4ccc(C(F)(F)F)cc4)c3)sc2cc1Cl"
result = "0.013 µM"

[[record]]
molecule_smiles = "CS(=O)(=O)Nc1ccc2cc(C(=O)Nc3cc(-c4ccc(C#N)nc4)cc(-c4ccc(F)cc4F)c3)[nH]c2c1"
result = "> 10 µM"

[[record]]
molecule_smiles = "CS(=O)(=O)Nc1ccc2sc(C(=O)Nc3cc(Cl)cc(Oc4cccc(C#N)c4)c3)cc2c1"
result = "0.79 µM"


Now for a further compound.
[ask] Can you share its IC50? I mean this compound: `CS(=O)(=O)Nc1ccc2cc(C(=O)Nc3cc(OC(F)F)cc(C4(c5ccc(F)cc5)CC4)c3)[nH]c2c1`
[reply] 1.4 µM
